Origin of measurements: a collection of fitness landscapes (doi:10.1126/science.1257360)

B1: PhoQ; a variant is named by its letters at X, in order, P23837 (parent)
chain: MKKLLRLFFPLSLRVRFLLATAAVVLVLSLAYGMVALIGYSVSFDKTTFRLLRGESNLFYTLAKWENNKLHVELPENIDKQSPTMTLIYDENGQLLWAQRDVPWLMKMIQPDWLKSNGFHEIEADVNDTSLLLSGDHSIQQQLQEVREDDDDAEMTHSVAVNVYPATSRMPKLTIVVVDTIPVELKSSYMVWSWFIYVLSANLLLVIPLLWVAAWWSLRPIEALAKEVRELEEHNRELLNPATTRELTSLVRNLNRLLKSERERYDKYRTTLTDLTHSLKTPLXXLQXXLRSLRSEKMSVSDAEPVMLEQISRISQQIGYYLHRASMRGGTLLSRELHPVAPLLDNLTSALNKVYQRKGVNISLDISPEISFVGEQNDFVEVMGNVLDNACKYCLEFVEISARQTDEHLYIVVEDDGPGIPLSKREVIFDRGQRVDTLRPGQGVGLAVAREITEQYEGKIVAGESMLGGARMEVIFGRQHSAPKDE

# Variants of: B1
# test-details: enrichment ratio after two sorts for PhoP signalling (ratio (wild type AVST 3.29)); higher = more functional
# assay-context: with PhoP (E. coli)
Over roughly 140,000 sequences, “enrichment ratio after two sorts for PhoP signalling” has its median near 0; the highest 2% begin near 11. The full list was thinned out, with the highest values kept by preference.
// enrichment ratio lookup, one value per entry
reported-property: enrichment ratio

TNTC = 11.6
RGYC = ≤ 0.25
TNTK = ≤ 0.25
KSLF = ≤ 0.25
ASFM = 6.83
KMFH = ≤ 0.25
AEHF = ≤ 0.25
NSLF = ≤ 0.25
TNTH = 1.01
FMCI = ≤ 0.25
VRLC = ≤ 0.25
TNTD = ≤ 0.25
ANVR = ≤ 0.25
TNIC = ≤ 0.25
YYEG = ≤ 0.25
YPTR = ≤ 0.25
LKSK = ≤ 0.25
EWFR = ≤ 0.25
SPPM = ≤ 0.25
PTHK = ≤ 0.25
ASTS = 9.85
SRPM = ≤ 0.25
HVDI = ≤ 0.25
SRCK = ≤ 0.25
NGYC = ≤ 0.25
AETS = 20.8
STCS = 10.8
TNTS = 13.4
YAYC = ≤ 0.25
STCA = 7.48
STCI = 12.3
AMFM = ≤ 0.25
ADLV = 8.2
FWES = ≤ 0.25
TNNK = ≤ 0.25
ASNS = ≤ 0.25
ASLF = 12.2
STHE = ≤ 0.25
ASHK = ≤ 0.25
YTCE = ≤ 0.25
AESF = 14.8
ASLV = 18.7
FFYC = ≤ 0.25
DSSW = ≤ 0.25
AESK = ≤ 0.25
QHHI = ≤ 0.25
